meta.source: paper PMC3961306

molecular target: panel of more than 300 wild-type and mutant kinases (313 kinase panel) (Homo sapiens); experiment: Kinase profiling in a biochemical assay panel (mobility shift assays and ELISA), %-inhibition at 1 μM; selectivity entropy; conditions: kinase COT; compound at 1 μM
Entries and their measured %-inhibition of COT follow.
The answer should read as a number with its unit following.

Cc1cn(-c2cc(NC(=O)c3ccc(C)c(Nc4nccc(-c5cccnc5)n4)c3)cc(C(F)(F)F)c2)cn1 [nilotinib]	2.3%

Next, consider the following compound.
Request: Form field: reported %-inhibition of COT of CN(C)C/C=C/C(=O)Nc1cc2c(Nc3ccc(F)c(Cl)c3)ncnc2cc1O[C@H]1CCOC1 [afatinib]
Response: -7.4%

* * *

Entries and their measured %-inhibition of RET(G691S) follow.
target: panel of more than 300 wild-type and mutant kinases (313 kinase panel) (Homo sapiens, UniProt P07949, G691S); assay: Kinase profiling in a biochemical assay panel (mobility shift assays and ELISA), %-inhibition at 1 μM; selectivity entropy; settings: kinase RET(G691S); 1 μM
Respond with the bare value in %.

CC(C)(C)c1nc(-c2cccc(NS(=O)(=O)c3c(F)cccc3F)c2F)c(-c2ccnc(N)n2)s1	53

Request: Form field: reported %-inhibition of RET(G691S) of CCCS(=O)(=O)Nc1ccc(F)c(C(=O)c2c[nH]c3ncc(-c4ccc(Cl)cc4)cc23)c1F
Response: 23

Request: Form field: reported %-inhibition of RET(G691S) of CO[C@H]1C[C@@H]2CC[C@@H](C)[C@@](O)(O2)C(=O)C(=O)N2CCCC[C@H]2C(=O)O[C@H]([C@H](C)C[C@@H]2CC[C@@H](OCCO)[C@H](OC)C2)CC(=O)[C@H](C)/C=C(\C)[C@@H](O)[C@@H](OC)C(=O)[C@H](C)C[C@H](C)/C=C/C=C/C=C/1C
Response: -4.43

* * *

Entries and their measured %-inhibition of MAP2K1 follow.
target: panel of more than 300 wild-type and mutant kinases (313 kinase panel) (Homo sapiens); test: Kinase profiling in a biochemical assay panel (mobility shift assays and ELISA), %-inhibition at 1 μM; selectivity entropy; conditions: kinase MAP2K1; compound at 1 μM
Respond with the bare value in %.

// worked examples, %-inhibition of MAP2K1 included
CCCS(=O)(=O)Nc1ccc(F)c(C(=O)c2c[nH]c3ncc(-c4ccc(Cl)cc4)cc23)c1F [vemurafenib]	18
N#CC[C@H](C1CCCC1)n1cc(-c2ncnc3[nH]ccc23)cn1 [ruxolitinib]	11

Request: Form field: reported %-inhibition of MAP2K1 of CNC(=O)c1cc(Oc2ccc(NC(=O)Nc3ccc(Cl)c(C(F)(F)F)c3)c(F)c2)ccn1 [regorafenib]
Response: -8.57

Request: Form field: reported %-inhibition of MAP2K1 of CO[C@H]1C[C@@H]2CC[C@@H](C)[C@@](O)(O2)C(=O)C(=O)N2CCCC[C@H]2C(=O)O[C@H]([C@H](C)C[C@@H]2CC[C@@H](OCCO)[C@H](OC)C2)CC(=O)[C@H](C)/C=C(\C)[C@@H](O)[C@@H](OC)C(=O)[C@H](C)C[C@H](C)/C=C/C=C/C=C/1C [everolimus]
Response: 7.5

* * *

molecular target: panel of more than 300 wild-type and mutant kinases (313 kinase panel) (Homo sapiens, UniProt P11362, V561M); test: Kinase profiling in a biochemical assay panel (mobility shift assays and ELISA), %-inhibition at 1 μM; selectivity entropy; details: kinase FGFR1(V561M); compound at 1 μM
QUANTITY KIND: %-inhibition of FGFR1(V561M) (%)
Respond with the bare value in %.

// worked examples, %-inhibition of FGFR1(V561M) included
COc1cc2nccc(Oc3ccc(NC(=O)C4(C(=O)Nc5ccc(F)cc5)CC4)cc3)c2cc1OC [cabozantinib]	-2.45
CO[C@H]1C[C@@H]2CC[C@@H](C)[C@@](O)(O2)C(=O)C(=O)N2CCCC[C@H]2C(=O)O[C@H]([C@H](C)C[C@@H]2CC[C@@H](OCCO)[C@H](OC)C2)CC(=O)[C@H](C)/C=C(\C)[C@@H](O)[C@@H](OC)C(=O)[C@H](C)C[C@H](C)/C=C/C=C/C=C/1C	-12
O=S(=O)(c1cccc2cnccc12)N1CCCNCC1	2.35
N#CC[C@H](C1CCCC1)n1cc(-c2ncnc3[nH]ccc23)cn1	50
Cc1ccc(C(=O)Nc2ccc(CN3CCN(C)CC3)c(C(F)(F)F)c2)cc1C#Cc1cnc2cccnn12	98

Request: Form field: reported %-inhibition of FGFR1(V561M) of CC(=O)Nc1cccc(-n2c(=O)n(C3CC3)c(=O)c3c(Nc4ccc(I)cc4F)n(C)c(=O)c(C)c32)c1
Response: -3.3

Request: Form field: reported %-inhibition of FGFR1(V561M) of CC(C)(C)c1nc(-c2cccc(NS(=O)(=O)c3c(F)cccc3F)c2F)c(-c2ccnc(N)n2)s1
Response: -0.282

Request: Form field: reported %-inhibition of FGFR1(V561M) of CCCS(=O)(=O)Nc1ccc(F)c(C(=O)c2c[nH]c3ncc(-c4ccc(Cl)cc4)cc23)c1F
Response: 5.37

Request: Form field: reported %-inhibition of FGFR1(V561M) of CO[C@H]1C[C@@H]2CC[C@@H](C)[C@@](O)(O2)C(=O)C(=O)N2CCCC[C@H]2C(=O)O[C@H]([C@H](C)C[C@@H]2CC[C@@H](OC(=O)C(C)(CO)CO)[C@H](OC)C2)CC(=O)[C@H](C)/C=C(\C)[C@@H](O)[C@@H](OC)C(=O)[C@H](C)C[C@H](C)/C=C/C=C/C=C/1C
Response: -9

Request: Form field: reported %-inhibition of FGFR1(V561M) of C[C@@H](Oc1cc(-c2cnn(C3CCNCC3)c2)cnc1N)c1c(Cl)ccc(F)c1Cl
Response: 26
